The reported numbers originate from patent US11643393B2.

Test system: human platelets
Assay: Agonist-induced platelet aggregation in whole human blood (impedance, Chrono-Log 700)
Format: cell-based
Details: Homo sapiens, Platelet; summary of FIGS. 6B-6C; ADP 20 μM; read-out: Prevention of ADP-induced human platelet aggregation, concentration range
pIC50: −log10 of the molar value.
TEST READOUT: pIC50

For the molecule CCCCS(=O)(=O)N[C@@H](Cc1ccc(OCCCCC2CCNCC2)cc1)C(=O)O [tirofiban] , give its reported pIC50.
8.70 to 8.82

====

Test system: human platelets
Test: Agonist-induced platelet aggregation in whole human blood (impedance, Chrono-Log 700)
Assay type: cell-based
Conditions: Homo sapiens, Platelet; FIG. 6C; ADP 20 μM; mean±S.E., n=5, three donors; read-out: IC50, human platelet aggregation induced by ADP
TEST READOUT: IC50 (nM)
Your answer should be a plain number; it is taken to be in nM.

For the compound CCCCS(=O)(=O)N[C@@H](Cc1ccc(OCCCCC2CCNCC2)cc1)C(=O)O [tirofiban] , give its reported IC50.
1.41
